Biological target: T1, human Gal10-His (human, UniProt Q05315 2-142, limits assumed)
T1 construct: also called hGal10-His; human Gal10-His tagged; not shown: His tag
T1 sequence: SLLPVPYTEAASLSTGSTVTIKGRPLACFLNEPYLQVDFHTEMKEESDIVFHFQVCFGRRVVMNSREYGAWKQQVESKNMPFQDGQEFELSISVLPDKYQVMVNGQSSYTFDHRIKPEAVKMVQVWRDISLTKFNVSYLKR
Test: SPR Biacore 3000, Fab periplasmic extract on Gal10-His-coated CM5
Experimental: The binding properties of the Fabs (periplasmic extract) to human Gal10-His were analyzed by SPR with a Biacore 3000 instrument. For this purpose, the diluted periplasmic extract was applied on a CM5 chip coated with human Gal10-His. As a positive control, a 20 nM injection of the purified g7B07 clone in the human Fab backbone was included at the beginning and end of the run. The binding capacity of the Fab periplasmic extract was analyzed by SPR technology using a Biacore 3000. […]
readout-type: koff (s⁻¹)
Just the number please, in s⁻¹, no unit attached.

Recorded koff for g21B01 (Fab, periplasmic extract) (Fab, V domains shown, X4 library; VH assembled by inference) VH: EVQLLESGGGLVQPGGSLRLSCAASGFTFRSYDMSWVRQAPGKGLEWVSAISGALTYYADSVKGRFTISRDNSKNTLYLQMNSLRAEDTAVYYCATTHGIGTLGFGSWGQGTLVTVSS VL: SYELTQPLSVSVALGQTARITCDGNNIGSKSAQWYQQKPGQAPVLVIYADEYRPEGIPERFSGSNSGNTATLTISRAQAGDEADYYCQVWDGSAAVFGGGTQLTVL , please?
0.026

Recorded koff for g20B05 (Fab, periplasmic extract) (Fab, V domains shown, X3 library; VH assembled by inference) VH: EVQLLESGGGLVQPGGSLRLSCAASGFTFRSYDMSWVRQAPGKGLEWVSAIKPVGITYYADSVKGRFTISRDNSKNTLYLQMNSLRAEDTAVYYCATTHGIGTLGFGSWGQGTLVTVSS VL: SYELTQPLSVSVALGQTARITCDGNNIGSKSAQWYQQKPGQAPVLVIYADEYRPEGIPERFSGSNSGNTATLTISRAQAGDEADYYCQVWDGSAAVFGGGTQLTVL , please?
0.023

Recorded koff for g20H09 (Fab) (Fab, V domains shown, same VH/VL) VH: EVQLLESGGGLVQPGGSLRLSCAASGFTFRSYDMSWVRQAPGKGLEWVSAIKWHRITYYADSVKGRFTISRDNSKNTLYLQMNSLRAEDTAVYYCATTHGIGTLGFGSWGQGTLVTVSS VL: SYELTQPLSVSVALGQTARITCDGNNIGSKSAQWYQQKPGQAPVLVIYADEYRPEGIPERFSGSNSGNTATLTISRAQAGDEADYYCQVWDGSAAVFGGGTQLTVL , please?
0.0088

Recorded koff for g23E05 (Fab, periplasmic extract) (Fab, V domains shown, X6 library; VH assembled by inference) VH: EVQLLESGGGLVQPGGSLRLSCAASGFTFRSYDMSWVRQAPGKGLEWVSAIRTFEHHTYYADSVKGRFTISRDNSKNTLYLQMNSLRAEDTAVYYCATTHGIGTLGFGSWGQGTLVTVSS VL: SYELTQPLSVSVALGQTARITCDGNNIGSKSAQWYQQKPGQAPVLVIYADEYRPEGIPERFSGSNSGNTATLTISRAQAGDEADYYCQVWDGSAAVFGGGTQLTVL , please?
0.013

Recorded koff for g23H09 (Fab) (Fab, V domains shown, same VH/VL) VH: EVQLLESGGGLVQPGGSLRLSCAASGFTFRSYDMSWVRQAPGKGLEWVSAIAQFQHWTYYADSVKGRFTISRDNSKNTLYLQMNSLRAEDTAVYYCATTHGIGTLGFGSWGQGTLVTVSS VL: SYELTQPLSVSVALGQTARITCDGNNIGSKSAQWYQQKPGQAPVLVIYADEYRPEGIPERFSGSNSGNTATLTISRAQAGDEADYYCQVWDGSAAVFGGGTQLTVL , please?
0.0027

Recorded koff for g23H11 (Fab, periplasmic extract) (Fab, V domains shown, X6 library; VH assembled by inference) VH: EVQLLESGGGLVQPGGSLRLSCAASGFTFRSYDMSWVRQAPGKGLEWVSAISKMPHLTYYADSVKGRFTISRDNSKNTLYLQMNSLRAEDTAVYYCATTHGIGTLGFGSWGQGTLVTVSS VL: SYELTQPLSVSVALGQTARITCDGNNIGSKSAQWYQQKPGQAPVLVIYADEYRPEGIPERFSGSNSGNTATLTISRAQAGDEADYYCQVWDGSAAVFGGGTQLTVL , please?
0.025
